Examples of compounds with documented t1/2 follow.
experiment: Half life in CD-1 mouse at 1 mg/kg, iv administered as single dose measured up to 24 hrs; format: ADME, organism-based; details: mouse, in vivo, 1 mg/kg, 24 h
value.type: t1/2 (h)

1) COc1nc(-c2csc(Nc3c4c(nn3C)CCC4)n2)ccc1-n1cnc(C)c1; 1.9
2) CCn1nc(C2(C)CC2)cc1Nc1nc(-c2ccc(-n3cnc(C)c3)c(OC)n2)cs1; 3.84
3) CCn1nc2c(c1Nc1nc(-c3ccc(-n4cnc(C)c4)c(OC)n3)cs1)CCCC2; 0.5
4) CCn1nc(C(F)(F)F)cc1Nc1nc(-c2ccc(-n3cnc(C)c3)c(OC)n2)cs1; 1.6
